Quick reference: log10 of Ki of the listed items.
- Target Desc: Neuropeptide Y receptor type 1 (Homo sapiens)
- Sequence (P25929 whole entry): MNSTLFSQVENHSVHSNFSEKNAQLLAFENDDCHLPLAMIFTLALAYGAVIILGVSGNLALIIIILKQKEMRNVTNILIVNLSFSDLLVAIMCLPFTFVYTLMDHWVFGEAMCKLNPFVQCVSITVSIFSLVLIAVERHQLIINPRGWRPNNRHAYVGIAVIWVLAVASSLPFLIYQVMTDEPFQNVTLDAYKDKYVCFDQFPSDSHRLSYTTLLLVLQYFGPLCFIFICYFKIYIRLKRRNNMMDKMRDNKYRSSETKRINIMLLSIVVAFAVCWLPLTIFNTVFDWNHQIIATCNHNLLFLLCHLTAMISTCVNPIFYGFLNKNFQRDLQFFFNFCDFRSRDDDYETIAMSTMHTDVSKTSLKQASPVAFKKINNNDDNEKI
- Method: Binding affinity at cloned Neuropeptide Y-1 receptor expressed in AV-12 cells is evaluated.
- Type: cell-based, AV12
// stored as log10 of Ki expressed in nM

Test Smiles: Cc1cccc2c1nc(COc1ccc(Cl)cc1)n2CCCC1CCN(CCCN2CCCCC2)CC1
Target Desc: Neuropeptide Y receptor type 1 (Homo sapiens)
log10 of Ki: 0.65

IN: log10 of Ki of Cc1cccc2c1nc(COc1ccc(Cl)cc1)n2CCCC1CCN(C(=O)CCN2CCCCC2)CC1 on Neuropeptide Y receptor type 1 (Homo sapiens)?
OUT: 2.41

IN: Recall the recorded log10 of Ki for Cc1cccc2c1nc(COc1ccc(Cl)cc1)n2CCCC1CCNCC1 with Neuropeptide Y receptor type 1 (Homo sapiens) and state it.
OUT: 2.53

IN: Record Cc1cccc2c1nc(COc1ccc(Cl)cc1)n2CCCC1CCN(CCc2ccccc2)CC1 : what is its log10 of Ki with Neuropeptide Y receptor type 1 (Homo sapiens)?
OUT: 1.46

IN: Request body: readout log10 of Ki, system Neuropeptide Y receptor type 1 (Homo sapiens), query Cc1cccc2c1nc(COc1ccc(Cl)cc1)n2CCCC1CCN(C)CC1 . Return the value.
OUT: 1.72

IN: Param readout = log10 of Ki; param system = Neuropeptide Y receptor type 1 (Homo sapiens); param query = Cc1cccc2c1nc(COc1ccc(Cl)cc1)n2CCCC1CCN(CCCc2ccccc2)CC1 ; response: value
OUT: 1.76

IN: Record Cc1cccc2c1nc(COc1ccc(Cl)cc1)n2CCCC1CCN(CCCC(=O)N2CCCCC2)CC1 : what is its log10 of Ki with Neuropeptide Y receptor type 1 (Homo sapiens)?
OUT: 1.32

IN: Form entry - test system: Neuropeptide Y receptor type 1 (Homo sapiens); read-out: log10 of Ki; compound: CCOC(=O)CCCN1CCC(CCCn2c(COc3ccc(Cl)cc3)nc3c(C)cccc32)CC1
OUT: 1.46

IN: GET /values?readout=log10 of Ki&system=Neuropeptide Y receptor type 1 (Homo sapiens)&item= CCCN1CCC(CCCn2c(COc3ccc(Cl)cc3)nc3c(C)cccc32)CC1
OUT: 1.46

IN: Lab note: need log10 of Ki with Neuropeptide Y receptor type 1 (Homo sapiens) for entry Cc1cccc2c1nc(COc1ccc(Cl)cc1)n2CCCC1CCN(CCCC(=O)O)CC1 , please look it up.
OUT: 3.21
